Numbers sourced from patent US20080312271A1.

assay target: mGluR2 receptor (metabotropic glutamate receptor 2) (Homo sapiens)
Construct: expressed in transfected cells
Sequence (Q14416 19-872, species assumed): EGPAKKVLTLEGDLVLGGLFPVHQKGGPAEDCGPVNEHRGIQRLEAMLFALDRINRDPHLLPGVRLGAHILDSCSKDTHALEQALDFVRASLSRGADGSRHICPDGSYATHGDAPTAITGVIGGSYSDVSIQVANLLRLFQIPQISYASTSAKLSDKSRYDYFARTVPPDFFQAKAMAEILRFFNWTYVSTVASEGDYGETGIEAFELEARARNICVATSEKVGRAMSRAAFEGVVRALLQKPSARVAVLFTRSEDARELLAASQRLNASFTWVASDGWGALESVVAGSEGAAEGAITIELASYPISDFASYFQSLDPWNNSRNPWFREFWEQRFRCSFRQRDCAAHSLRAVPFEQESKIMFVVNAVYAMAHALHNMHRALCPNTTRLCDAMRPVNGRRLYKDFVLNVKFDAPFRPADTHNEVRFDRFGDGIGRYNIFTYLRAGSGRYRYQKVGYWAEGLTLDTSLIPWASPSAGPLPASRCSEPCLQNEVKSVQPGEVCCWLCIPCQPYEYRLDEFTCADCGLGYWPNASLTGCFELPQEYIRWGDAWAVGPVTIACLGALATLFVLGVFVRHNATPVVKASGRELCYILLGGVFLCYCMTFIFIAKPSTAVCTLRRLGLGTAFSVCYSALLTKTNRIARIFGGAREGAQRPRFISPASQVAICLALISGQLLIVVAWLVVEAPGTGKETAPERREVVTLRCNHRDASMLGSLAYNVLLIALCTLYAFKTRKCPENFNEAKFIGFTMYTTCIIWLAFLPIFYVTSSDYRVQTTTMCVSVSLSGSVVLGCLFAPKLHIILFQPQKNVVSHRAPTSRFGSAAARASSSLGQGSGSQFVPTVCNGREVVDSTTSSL
test protocol: mGluR2 Potentiator Screen, FLIPR, EC10-EC20 glutamate challenge
Assay type: cell-based
pEC50: −log10 of the molar value.
value kind: pEC50

[[record]]
compound = "C[C@H]1CN(Cc2nc3ncccc3n2C)CC[C@H]1c1ccc(Cl)cc1F"
experimental_result = "< 5.74"

[[record]]
compound = "C[C@@H]1CN(Cc2nc3ncccc3n2C)CC[C@@H]1c1ccc(OC(F)F)cc1 (single isomer, unassigned) [compound 224]"
experimental_result = "< 5.72"

[[record]]
compound = "C[C@@H]1CN(Cc2nc3cnccc3n2C)CC[C@@H]1c1ccc(OC(F)F)cc1 (relative stereo)"
experimental_result = "< 5.87"


###

We begin with a simple list: items and their reported pEC50.
assay target: mGluR2 receptor (metabotropic glutamate receptor 2) (Homo sapiens)
Construct: expressed in transfected cells
test protocol: mGluR2 Potentiator Screen, FLIPR, EC10-EC20 glutamate challenge
Type: cell-based
protocol conditions: mGluR2 potentiator screen, FLIPR, EC10-EC20 glutamate challenge
pEC50: −log10 of the molar value.
value kind: pEC50

[[record]]
molecule = "Cc1cc(C(F)(F)F)ccc1[C@H]1CCN(Cc2nc3ncccc3n2C)C[C@H]1C (relative stereo)"
value_kind = "pEC50"
experimental_result = 7.06

[[record]]
molecule = "C[C@@H]1CN(Cc2nc3ncccc3n2C)CC[C@@H]1c1ccc(OC(F)F)cc1F (relative stereo)"
value_kind = "pEC50"
experimental_result = 7.17

[[record]]
molecule = "Cn1c(CN2CCC(c3ccc(OC(F)F)cc3Cl)CC2)nc2cnccc21"
value_kind = "pEC50"
experimental_result = 6.79

[[record]]
molecule = "COc1ccc(C2CCN(Cc3nc4ncccc4n3C)CC2)c(C(F)(F)F)c1"
value_kind = "pEC50"
experimental_result = 6.31

[[record]]
molecule = "COc1ccc(C2CCN(Cc3nc4cnccc4n3C)CC2)c(C(F)(F)F)c1"
value_kind = "pEC50"
experimental_result = 6.31

[[record]]
molecule = "COc1cc(OC(F)(F)F)ccc1C1CCN(Cc2nc3cnccc3n2C)CC1"
value_kind = "pEC50"
experimental_result = 7.47

[[record]]
molecule = "C[C@@H]1CN(Cc2nc3cnccc3n2C)CC[C@@H]1c1ccc(OC(F)(F)F)cc1Cl (single isomer, unassigned) [compound 254]"
value_kind = "pEC50"
experimental_result = 7.06

[[record]]
molecule = "Cn1c(CN2CCC(c3ccc(C(F)(F)F)cc3Cl)CC2)nc2ncccc21"
value_kind = "pEC50"
experimental_result = 7.62

[[record]]
molecule = "C[C@@H]1CN(Cc2nc3ncccc3n2C)CC[C@@H]1c1ccc(F)cc1C(F)(F)F (single isomer, unassigned) [compound 252]"
value_kind = "pEC50"
experimental_result = 6.54

[[record]]
molecule = "C[C@@H]1CN(Cc2nc3ncccc3n2C)CC[C@@H]1c1ccc(OC(F)F)cc1Cl (single isomer, unassigned) [compound 245]"
value_kind = "pEC50"
experimental_result = 6.58

[[record]]
molecule = "Cn1c(CN2CCC(c3ccc(OC(F)F)cc3)CC2)nc2cnccc21"
value_kind = "pEC50"
experimental_result = 6.04

[[record]]
molecule = "Cn1c(CN2CCC(c3ccc(C(F)(F)F)cc3F)CC2)nc2cnccc21"
value_kind = "pEC50"
experimental_result = 7.29

